Species on record: Rattus norvegicus
assay info: Open TG-GATES - Regimen: Daily Repeat
Assay type: toxicity, organism-based, Sprague-Dawley
Set-up: regimen Daily Repeat, gender Male, age 6 weeks
details: in vivo, po, 300 mg/kg, […], tissue Blood, route gavage, dose level Middle, time 14 day
Please respond with reported Mono for every item in the list.
Please reply with the bare figure in % and do not write the unit itself.

Per the record, CN/C(=N/CCSCc1nc[nH]c1C)NC#N [CIMETIDINE] has Mono of 2.8

Lab book: Mono of O=C(OC[C@H]1O[C@@H](OC(=O)c2cc(O)c(O)c(OC(=O)c3cc(O)c(O)c(O)c3)c2)[C@H](OC(=O)c2cc(O)c(O)c(OC(=O)c3cc(O)c(O)c(O)c3)c2)[C@@H](OC(=O)c2cc(O)c(O)c(OC(=O)c3cc(O)c(O)c(O)c3)c2)[C@@H]1OC(=O)c1cc(O)c(O)c(OC(=O)c2cc(O)c(O)c(O)c2)c1)c1cc(O)c(O)c(OC(=O)c2cc(O)c(O)c(O)c2)c1 [TANNIC ACID] noted as 8

Mono recorded for this compound, CCOc1ccc(NC(C)=O)cc1 [PHENACETIN] , is 2.2

Measured Mono of COC(=O)C1=C(C)NC(C)=C(C(=O)OC)C1c1ccccc1[N+](=O)[O-] [NIFEDIPINE] : 3

Looking up CNC(=C[N+](=O)[O-])NCCSCc1ccc(CN(C)C)o1 [RANITIDINE] , I see its Mono listed as 2.4

The recorded Mono for Cc1nnc2n1-c1ccc(Cl)cc1C(c1ccccc1Cl)=NC2 [TRIAZOLAM] is 2.2

====

Species: Rattus norvegicus
assay info: Open TG-GATES - Regimen: Single
Format: toxicity, organism-based, Sprague-Dawley
Design: regimen Single, gender Male, age 6 weeks
details: in vivo, po, 300 mg/kg, 6 h, tissue Plasma, route gavage, dose level Middle
I'd be grateful if you could share measured gamma-GTP for these entries.
Write the number in IU/L without appending the unit.

The compound identified as Cc1nnc2n1-c1ccc(Cl)cc1C(c1ccccc1Cl)=NC2 registered its gamma-GTP at 1

// sample CNC(=C[N+](=O)[O-])NCCSCc1ccc(CN(C)C)o1 , its gamma-GTP was 1.4

Measured gamma-GTP of O=C(OC[C@H]1O[C@@H](OC(=O)c2cc(O)c(O)c(OC(=O)c3cc(O)c(O)c(O)c3)c2)[C@H](OC(=O)c2cc(O)c(O)c(OC(=O)c3cc(O)c(O)c(O)c3)c2)[C@@H](OC(=O)c2cc(O)c(O)c(OC(=O)c3cc(O)c(O)c(O)c3)c2)[C@@H]1OC(=O)c1cc(O)c(O)c(OC(=O)c2cc(O)c(O)c(O)c2)c1)c1cc(O)c(O)c(OC(=O)c2cc(O)c(O)c(O)c2)c1 : 1.4

response.value for CN/C(=N/CCSCc1nc[nH]c1C)NC#N (field: gamma-GTP) = 1.4

Notebook: COC(=O)C1=C(C)NC(C)=C(C(=O)OC)C1c1ccccc1[N+](=O)[O-] , gamma-GTP read as 1.2

====

Organism: Rattus norvegicus
assay info: Open TG-GATES - Regimen: Daily Repeat
Type: toxicity, organism-based, Sprague-Dawley
Set-up: regimen Daily Repeat, gender Male, age 6 weeks
details: in vivo, po, 0 mg/kg, […], tissue Blood, route gavage, dose level Control, time 14 day
Could you label it fulfilled if measured WBC is 90 x10_2/uL or higher, and not fulfilled otherwise?

Ask: Is reported WBC greater than or equal to 90 x10_2/uL here: Cc1nnc2n1-c1ccc(Cl)cc1C(c1ccccc1Cl)=NC2 [TRIAZOLAM]
Result: fulfilled

Ask: Given CC(C)NNC(=O)c1ccncc1 [IPRONIAZID] , state whether its WBC is at least 90 x10_2/uL.
Result: fulfilled

Ask: For this molecule, is measured WBC 90 x10_2/uL or higher? COC(=O)C1=C(C)NC(C)=C(C(=O)OC)C1c1ccccc1[N+](=O)[O-] [NIFEDIPINE]
Result: fulfilled

Ask: Could you verify whether the entry CCCc1cc(=O)[nH]c(=S)[nH]1 [PROPYLTHIOURACIL] shows WBC of no less than 90 x10_2/uL?
Result: fulfilled

Ask: Could you verify whether the entry CNC(=C[N+](=O)[O-])NCCSCc1ccc(CN(C)C)o1 [RANITIDINE] shows WBC of no less than 90 x10_2/uL?
Result: fulfilled

Ask: State whether the measured WBC reaches 90 x10_2/uL, counting equality as reaching it, for CN/C(=N/CCSCc1nc[nH]c1C)NC#N [CIMETIDINE]
Result: fulfilled

Ask: WBC >= 90 x10_2/uL for O=C(OC[C@H]1O[C@@H](OC(=O)c2cc(O)c(O)c(OC(=O)c3cc(O)c(O)c(O)c3)c2)[C@H](OC(=O)c2cc(O)c(O)c(OC(=O)c3cc(O)c(O)c(O)c3)c2)[C@@H](OC(=O)c2cc(O)c(O)c(OC(=O)c3cc(O)c(O)c(O)c3)c2)[C@@H]1OC(=O)c1cc(O)c(O)c(OC(=O)c2cc(O)c(O)c(O)c2)c1)c1cc(O)c(O)c(OC(=O)c2cc(O)c(O)c(O)c2)c1 [TANNIC ACID] ?
Result: fulfilled

Ask: Please tell me: is the molecule NC1=NC(=O)C(c2ccccc2)O1 (stereo not drawn) [PEMOLINE] at or over 90 x10_2/uL in terms of WBC?
Result: not fulfilled

Ask: Please indicate if the recorded WBC for CN1C(=O)CCS(=O)(=O)C1c1ccc(Cl)cc1 (stereo not drawn) [CHLORMEZANONE] meets or exceeds 90 x10_2/uL.
Result: not fulfilled

Ask: Form field: WBC at least 90 x10_2/uL? Entry: CCOc1ccc(NC(C)=O)cc1 [PHENACETIN]
Result: fulfilled
